- System Tested: EGFR^19del+G724S (Homo sapiens, UniProt P00533, G724S, form not given)
- Test Parameters: Supplementary Table 2; mean ± SD of three independent measurements in duplicates; read-out: EGFR19del+G724S IC50
pIC50: −log10 of the molar value.
Measured Parameter: pIC50

Name the recorded pIC50 of the item C=CC(=O)Nc1ccc2ncnc(Nc3ccc(OCc4cccc(F)c4)c(Cl)c3)c2c1 in your answer.
> 9.00

* * *

- Tested on: EGFR^19del+G724S
- Format: biochemical, human
- Test Parameters: read-out: EGFR19del+G724S IC50
Measured Parameter: pIC50
Notebook: values listed as pIC50 are -log10 of the concentration (mol/L).

Name the recorded pIC50 of the item COc1cc(N2CCC(N3CCN(C)CC3)CC2)ccc1Nc1ncc(Cl)c(Nc2ccccc2P(C)(C)=O)n1 [brigatinib] in your answer.
6.95
